- EXPERIMENT_DESCRIPTION: Antitumour activity against human JJN3R cells measured after 72 hrs by MTS assay
- Type: functional, cell-based
- CONDITION_INFO: JJN-3R
ASSAY_READOUT: IC50 (nM)
Give the number; nM is assumed, so skip it.

Some solved cases for reference:
# MOLECULAR_STRING, IC50, nM
data = [
    ("Cc1noc(C)c1-c1cc(C(N)=O)c2c3ccc(C(C)(C)O)cc3n([C@@H](c3ccccc3)C3CCOCC3)c2c1", 46),
    ("Cc1nocc1-c1cc(C(N)=O)c2c(c1)c1ccc(C(=O)N3C[C@@H](C)O[C@@H](C)C3)cc1n2CC1CC1", 2960),
]

Name the recorded IC50 for Cc1noc(C)c1-c1cc(C(N)=O)c2c(c1)c1ccc(C(=O)N3CCOCC3)cc1n2CC1CC1 .
414

Name the recorded IC50 for Cc1noc(C)c1-c1cc(C(N)=O)c2c3ccc(C(C)(C)O)cc3n(CC3CCOCC3)c2c1 .
128

====

- EXPERIMENT_DESCRIPTION: Antitumour activity against human JJN3R cells measured after 72 hrs by MTS assay
- Format: functional, cell-based
- CONDITION_INFO: JJN-3R
ASSAY_READOUT: IC50 (nM)
Give the number; nM is assumed, so skip it.

# MOLECULE, UNIT_ABBREVIATION, RESULT_VALUE
records = [
    ("Cc1noc(C)c1-c1cc(C(N)=O)c2c(c1)c1ccc(C(=O)N3C[C@@H](C)O[C@@H](C)C3)cc1n2CC1CC1", "nM", 525),
    ("Cc1n[nH]c(C)c1-c1cc(C(N)=O)c2c(c1)c1ccc(C(=O)N3C[C@@H](C)O[C@@H](C)C3)cc1n2CC1CC1", "nM", 7600),
    ("Cc1noc(C)c1-c1cc(C(N)=O)c2c3ccc(C(C)(C)O)cc3n([C@H](c3ccccc3)C3CCOCC3)c2c1", "nM", 3.1),
    ("Cc1nnn(C)c1-c1cnc2c3ccc(C(C)(C)O)cc3n([C@H](c3ccccc3)C3CCOCC3)c2c1 [EZOBRESIB]", "nM", 3.6),
    ("Cc1noc(C)c1-c1cc(C(N)=O)c2c3ccc(C(C)(C)O)cc3n(Cc3ccccc3)c2c1", "nM", 35),
    ("Cc1nnn(C)c1-c1cc(C(N)=O)c2c(c1)c1ccc(C(=O)N3C[C@@H](C)O[C@@H](C)C3)cc1n2CC1CC1", "nM", 796),
]

Name the recorded IC50 for Cc1noc(C)c1-c1cnc2c3ccc(C(C)(C)O)cc3n([C@H](c3ccccc3)C3CCOCC3)c2c1 .
8.4

Name the recorded IC50 for Cc1noc(C)c1-c1cc(C(N)=O)c2c3ccc(C(C)(C)O)cc3n([C@H](c3ccc(F)cc3)C3CCOCC3)c2c1 .
3.1

Name the recorded IC50 for Cc1noc(C)c1-c1cc(C(N)=O)c2c3cc(C(=O)N4C[C@@H](C)O[C@@H](C)C4)ccc3n(CC3CC3)c2c1 .
422

Name the recorded IC50 for Cc1noc(C)c1-c1cc(C(N)=O)c2c3cc(C(C)(C)O)ccc3n(Cc3ccccc3)c2c1 .
95

Name the recorded IC50 for Cc1noc(C)c1-c1cc(C(N)=O)c2c3ccc(C(C)(C)O)cc3n(C(c3ccccc3)c3ccccc3)c2c1 .
11

Name the recorded IC50 for Cc1noc(C)c1-c1cc(C(N)=O)c2c3cc(C(=O)N4C[C@@H](C)O[C@@H](C)C4)ccc3n(Cc3ccccc3)c2c1 .
38

Name the recorded IC50 for Cc1oncc1-c1cc(C(N)=O)c2c(c1)c1ccc(C(=O)N3C[C@@H](C)O[C@@H](C)C3)cc1n2CC1CC1 .
3530

====

- EXPERIMENT_DESCRIPTION: Cmax in mouse at 30 mg/kg, po
- Type: ADME, organism-based
- Set-up: dose 30 mg/kg, route po
- CONDITION_INFO: in vivo
ASSAY_READOUT: Cmax (µM)
Give the number; µM is assumed, so skip it.

Some solved cases for reference:
# MOLECULAR_STRING, UNIT_ABBREVIATION, Cmax
data = [
    ("Cc1noc(C)c1-c1cc(C(N)=O)c2c3ccc(C(C)(C)O)cc3n(Cc3ccccc3)c2c1", "µM", 7.1),
    ("Cc1noc(C)c1-c1cc(C(N)=O)c2c3ccc(C(C)(C)O)cc3n([C@H](c3ccc(F)cc3)C3CCOCC3)c2c1", "µM", 0.9),
    ("Cc1noc(C)c1-c1cnc2c3ccc(C(C)(C)O)cc3n([C@H](c3ccccc3)C3CCOCC3)c2c1", "µM", 9.2),
    ("Cc1noc(C)c1-c1cc(C(N)=O)c2c3ccc(C(C)(C)O)cc3n([C@H](c3ccccc3)C3CCOCC3)c2c1", "µM", 0.4),
]

Name the recorded Cmax for Cc1nnn(C)c1-c1cnc2c3ccc(C(C)(C)O)cc3n([C@H](c3ccccc3)C3CCOCC3)c2c1 .
11.9

====

- TEST_SYSTEM: Voltage-gated inwardly rectifying potassium channel KCNH2 (Homo sapiens)
- Sequence (Q12809 whole entry): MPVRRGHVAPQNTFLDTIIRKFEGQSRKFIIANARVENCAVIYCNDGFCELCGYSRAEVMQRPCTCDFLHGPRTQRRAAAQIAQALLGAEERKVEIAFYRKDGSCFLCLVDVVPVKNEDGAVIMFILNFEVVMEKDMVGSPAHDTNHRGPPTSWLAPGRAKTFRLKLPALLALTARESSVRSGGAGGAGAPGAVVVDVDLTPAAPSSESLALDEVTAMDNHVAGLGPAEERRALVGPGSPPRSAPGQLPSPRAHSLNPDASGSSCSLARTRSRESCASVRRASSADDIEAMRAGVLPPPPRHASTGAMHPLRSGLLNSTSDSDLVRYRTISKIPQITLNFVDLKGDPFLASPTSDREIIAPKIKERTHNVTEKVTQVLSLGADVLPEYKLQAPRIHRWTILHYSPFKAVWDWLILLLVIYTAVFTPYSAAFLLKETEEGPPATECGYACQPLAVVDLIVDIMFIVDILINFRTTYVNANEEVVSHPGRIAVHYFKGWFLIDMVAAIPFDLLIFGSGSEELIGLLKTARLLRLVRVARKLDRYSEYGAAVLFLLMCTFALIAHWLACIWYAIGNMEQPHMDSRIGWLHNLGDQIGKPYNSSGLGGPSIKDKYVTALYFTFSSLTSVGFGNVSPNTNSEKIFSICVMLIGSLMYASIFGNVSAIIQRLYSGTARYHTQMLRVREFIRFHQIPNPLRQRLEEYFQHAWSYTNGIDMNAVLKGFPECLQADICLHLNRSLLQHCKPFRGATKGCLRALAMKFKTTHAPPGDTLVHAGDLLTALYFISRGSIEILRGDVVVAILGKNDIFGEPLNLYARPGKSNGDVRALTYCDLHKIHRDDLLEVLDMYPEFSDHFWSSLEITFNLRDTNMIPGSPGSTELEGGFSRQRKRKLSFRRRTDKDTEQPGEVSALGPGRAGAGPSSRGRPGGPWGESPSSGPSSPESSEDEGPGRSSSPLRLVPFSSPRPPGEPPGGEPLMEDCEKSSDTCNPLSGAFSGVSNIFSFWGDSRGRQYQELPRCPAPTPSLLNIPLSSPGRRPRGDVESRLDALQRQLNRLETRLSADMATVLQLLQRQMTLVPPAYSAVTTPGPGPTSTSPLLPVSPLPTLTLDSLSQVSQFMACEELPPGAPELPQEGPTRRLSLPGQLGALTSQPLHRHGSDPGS
- EXPERIMENT_DESCRIPTION: Inhibition of human ERG by flux assay
ASSAY_READOUT: IC50 (µM)
Give the number; µM is assumed, so skip it.

So what IC50 did Cc1noc(C)c1-c1cnc2c3ccc(C(C)(C)O)cc3n([C@H](c3ccccc3)C3CCOCC3)c2c1 get with Voltage-gated inwardly rectifying potassium channel KCNH2 (Homo sapiens)?
51

Hello, the source for this data is ChEMBL document CHEMBL5053512, in case you need it.
